# TGT: cynomolgus formyl peptide receptor 1 (cynomolgus monkey)
# METHOD DESCRIPTION: FMAT competition binding on cells

BINDER	IC50 / nM
Fpro0067 IgG (antibody, V domains shown) VH: EVQLVESGGGLVKPGGSLRLSCAASGFTFSNAWMNWVRQAPGKGLEWVGRIKSKTDGGAADYAAPVKGRFTISRDDSKNTLYLQMNSLKTEDTAVYYCTTDQLGYDFWSGYYTDTLYYYFGMDVWGPGTTVTVSS VL: DIVMTQSPLSLPVTPGEPASISCRSSQPLLAMDGHNYLDWYLQKPGQSPQVLIYQSKWRASGVPDRFSGSGSGTDFTLKISRVEAEDVGVYYCMQALQTPLTFGGGTKVEIK	13
